target: hH1R (Homo sapiens); construct: SP (signal peptide) (N); expressed in transfected cells; assay: hH1R radioligand binding ([3H]mepyramine); conditions: HEK293T cells; oxalate form
Sequence (P35367 whole entry): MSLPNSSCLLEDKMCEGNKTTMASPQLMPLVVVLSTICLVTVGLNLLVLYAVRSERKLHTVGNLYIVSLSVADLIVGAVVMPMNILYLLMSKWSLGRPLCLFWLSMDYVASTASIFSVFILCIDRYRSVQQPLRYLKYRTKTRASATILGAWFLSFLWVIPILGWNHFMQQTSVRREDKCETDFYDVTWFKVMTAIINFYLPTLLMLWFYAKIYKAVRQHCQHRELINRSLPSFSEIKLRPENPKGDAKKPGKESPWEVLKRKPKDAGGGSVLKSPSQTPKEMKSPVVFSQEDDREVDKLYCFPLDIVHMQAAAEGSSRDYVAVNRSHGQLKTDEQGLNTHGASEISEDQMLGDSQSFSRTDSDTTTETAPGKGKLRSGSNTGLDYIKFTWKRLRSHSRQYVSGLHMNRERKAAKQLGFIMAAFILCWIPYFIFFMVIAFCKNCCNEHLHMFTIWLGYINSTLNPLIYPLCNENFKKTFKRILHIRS
recorded_endpoint: Ki

The reported value for `c1ccc(-c2ccc(OCCCN3CCCCC3)cc2)cc1` in terms of Ki is > 10 µM

----------
Assignment: determine reported Ki for the given compounds.
biological target: σ2R (Rattus norvegicus, UniProt Q5U3Y7); experiment: σ2R radioligand binding ([3H]DTG, liver membranes); conditions: exptl Ki σ2, Table 3, given as mean ± spread
Sequence (Q5U3Y7 whole entry): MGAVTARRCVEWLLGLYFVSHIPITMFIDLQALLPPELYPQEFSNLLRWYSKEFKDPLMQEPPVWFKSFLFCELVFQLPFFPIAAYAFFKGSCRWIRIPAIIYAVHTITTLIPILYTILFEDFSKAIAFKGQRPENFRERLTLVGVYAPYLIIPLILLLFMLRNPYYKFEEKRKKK
Just the number please, in nM, no unit attached.

The reported value for CC(=O)c1ccc(OCCCN2CCN(c3ccncc3)CC2)cc1 [Compound 3] in terms of Ki is 247

The reported value for O=C(c1ccc(F)cc1)c1ccc(OCCCN2CCN(c3ccncc3)CC2)cc1 [Compound 10] in terms of Ki is 164

The reported value for O=C(c1ccc(OCCCN2CCC(c3ccncc3)CC2)cc1)C1CC1 [Compound 5] in terms of Ki is 22.4

The reported value for CC(=O)c1ccc(OCCCCCCCCN2CCN(c3ccncc3)CC2)cc1 [Compound 19] in terms of Ki is 59.7

The reported value for CCC(=O)c1ccc(OCCCCCCCCN2CCN(c3ccncc3)CC2)cc1 [Compound 20] in terms of Ki is 65.9

The reported value for O=C(c1ccc(OCCCN2CCN(c3ccncc3)CC2)cc1)C1CC1 [Compound 4] in terms of Ki is 101

----------
Assignment: determine reported σ2/σ1 ratio for the given compounds.
test system: σ1R; experiment: σ1R radioligand binding ([3H](+)-pentazocine, brain cortex membranes); conditions: σ2R Ki / σ1R Ki (selectivity factor)
Would you mind answering with just the numeric figure?

The reported value for `CCC(=O)c1ccc(OCCCCCCN2CCN(c3ccncc3)CC2)cc1` in terms of σ2/σ1 ratio is 0.4

The reported value for `O=C(c1ccc(F)cc1)c1ccc(OCCCN2CCN(c3ccncc3)CC2)cc1` in terms of σ2/σ1 ratio is 0.1

The reported value for `COOc1c(OC)cc(I)cc1C(=O)NCCCCN1CCc2cc(OC)c(OC)cc2C1` in terms of σ2/σ1 ratio is 0.00012

The reported value for `c1ccc(-c2ccc(OCCCN3CCN(c4ccncc4)CC3)cc2)cc1` in terms of σ2/σ1 ratio is 0.2

The reported value for `CC(=O)c1ccc(OCCCCCCCCN2CCN(c3ccncc3)CC2)cc1` in terms of σ2/σ1 ratio is 0.1

The reported value for `CCC(=O)c1ccc(OCCCCCCCCN2CCN(c3ccncc3)CC2)cc1` in terms of σ2/σ1 ratio is 0.2

The reported value for `O=C(c1ccccc1)c1ccc(OCCCN2CCCCC2)cc1` in terms of σ2/σ1 ratio is 6.5

The reported value for `CC(=O)c1ccc(OCCCN2CCN(c3ccncc3)CC2)cc1` in terms of σ2/σ1 ratio is 0.2

The reported value for `CC(C)(C)c1ccc(OCCCCCCN2CCN(c3ccncc3)CC2)cc1` in terms of σ2/σ1 ratio is 0.7

The reported value for `O=C(c1ccc(OCCCN2CCN(c3ccncc3)CC2)cc1)C1CC1` in terms of σ2/σ1 ratio is 0.1

----------
molecular target: σ1R (Cavia porcellus, UniProt Q60492); experiment: σ1R radioligand binding ([3H](+)-pentazocine, brain cortex membranes); settings: exptl Ki σ1, Table 3, given as mean ± spread
Sequence (Q60492 whole entry): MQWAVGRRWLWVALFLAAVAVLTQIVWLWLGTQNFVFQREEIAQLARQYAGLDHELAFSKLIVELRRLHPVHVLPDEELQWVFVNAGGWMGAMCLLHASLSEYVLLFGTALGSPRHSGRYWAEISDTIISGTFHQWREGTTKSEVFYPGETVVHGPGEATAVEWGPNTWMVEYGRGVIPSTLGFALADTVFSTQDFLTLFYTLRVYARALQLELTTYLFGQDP
recorded_endpoint: Ki (nM)
Just the number please, in nM, no unit attached.

The reported value for `O=C(c1ccc(Cl)cc1)c1ccc(OCCCN2CCN(c3ccncc3)CC2)cc1` in terms of Ki is 641

The reported value for `CCC(C)(C)c1ccc(OCCCCN2CCN(c3ccncc3)CC2)cc1` in terms of Ki is 285

The reported value for `CCC(=O)c1ccc(OCCCCCCN2CCN(c3ccncc3)CC2)cc1` in terms of Ki is 248

The reported value for `O=C(c1ccc(OCCCN2CCN(c3ccncc3)CC2)cc1)C1CC1` in terms of Ki is 1530

The reported value for `CCC(=O)c1ccc(OCCCCCCCCN2CCN(c3ccncc3)CC2)cc1` in terms of Ki is 274

The reported value for `O=C(c1ccc(OCCCN2CCC(c3ccncc3)CC2)cc1)C1CC1` in terms of Ki is 3.64
